Hello, the source for this data is patent US20230059489A1, in case you need it.

system-name: T1, human FLT3 (hFLT3) (human, UniProt P36888 27-543)
T1 construct: also called huFlt3; Fms-Like Tyrosine Kinase 3
T1 sequence (looked up): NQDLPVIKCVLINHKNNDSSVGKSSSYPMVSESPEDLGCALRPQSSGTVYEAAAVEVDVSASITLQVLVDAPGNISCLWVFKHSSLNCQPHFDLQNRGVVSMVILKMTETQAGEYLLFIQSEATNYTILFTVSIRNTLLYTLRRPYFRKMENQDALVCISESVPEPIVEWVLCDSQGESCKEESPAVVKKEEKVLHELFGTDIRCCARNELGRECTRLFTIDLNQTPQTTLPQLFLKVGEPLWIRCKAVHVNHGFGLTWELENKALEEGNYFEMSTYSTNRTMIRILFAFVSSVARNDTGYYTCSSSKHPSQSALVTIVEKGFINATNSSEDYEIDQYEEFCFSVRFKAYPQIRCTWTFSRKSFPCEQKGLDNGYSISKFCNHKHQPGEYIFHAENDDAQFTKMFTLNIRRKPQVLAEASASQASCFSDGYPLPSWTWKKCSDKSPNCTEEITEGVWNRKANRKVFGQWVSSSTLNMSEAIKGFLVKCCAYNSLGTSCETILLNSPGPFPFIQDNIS
measurement-protocol: SPR (Biacore T200), 37 C; IgG captured on anti-human Fc, hFLT3 as analyte
observation-type: koff (s⁻¹)
Numeric answer only, unit s⁻¹ assumed.

binder	measured-number
P7F9 (IgG format) (antibody, V domains shown, IgG format, captured by anti-human Fc) VH: EVQLLESGGGLVQPGGSLRLSCAASGFTFSSYAMSWVRQAPGKGLEWVSAIGGSGGSTYYADSVKGRFTISRDNSKNTLYLQMNSLRAEDTAMYYCARDYYAFSDPAYGGMDVWGQGTLVTVSS VL: NFMLTQPHSVSESPGKTVTISCTRSSGSIASNYVQWYQQKPGQAPVLVVYDDSDRPSGIPERFSGSNSGNTATLTISRVEAGDEADYYCQVWDSSSDHWVFGGGTKLTVL	0.0013
P1B11 (IgG format) (antibody, V domains shown, IgG format, captured by anti-human Fc) VH: QVQLVQSGAEVKKPGSSVKVSCKASGGTFRSFDISWVRQAPGQGLEWMGRIIPILGYANYAQKFQGRVTITADESTSTAYMELSSLRSEDTAVYYCASDLGAPWAGYPFDPWGQGTLVTVSS VL: EIVLTQSPGTLSLSPGERATLSCRASQSVSSSELAWYQQKPGQAPRLLIYDASSRATGIPDRFSGSGSGTDFTLTISRLEPEDFAVYYCQQYDSSPLTFGQGTKVEIK	0.0055
P5F7 (IgG format) (antibody, V domains shown, IgG format, captured by anti-human Fc; the VLs differ at the N-terminus; the first entry is used) VH: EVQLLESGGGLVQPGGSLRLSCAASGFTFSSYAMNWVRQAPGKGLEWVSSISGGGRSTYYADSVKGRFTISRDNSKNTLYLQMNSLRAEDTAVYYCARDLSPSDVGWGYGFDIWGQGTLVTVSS VL: EIVLTQSPATLSLSPGERATLSCRASQSVSSNLAWYQQKPGQAPRLLIYDTFTRATGIPARFSGSGSGTDFTLTISRLEPEDFAVYYCQQYGSSPPTFGQGTRLEIK	0.000152
P9F1 (IgG format) (antibody, V domains shown, IgG format, captured by anti-human Fc) VH: EVQLLESGGGLVQPGGSLRLSCAASGFIFSSFAMSWVRQAPGKGLEWVSDISGSGASTYYADSVKGRFTISRDNSKNTLYLQMNSLRAEDTAVYYCASASGGSGSYWPYMDPWGQGTLVTVSS VL: QSVLTQPPSASGTPGQRVTISCSGSGSNIGSNYVYWYQQLPGTAPKLLIYRNNQRPSGVPDRFSGSKSGTSASLAISGLRSEDEADYYCAAWDGSLSRPVFGTGTKLTVL	0.023

## Task Entry P4H11 (IgG format) (antibody, V domains shown, IgG format, captured by anti-human Fc) VH: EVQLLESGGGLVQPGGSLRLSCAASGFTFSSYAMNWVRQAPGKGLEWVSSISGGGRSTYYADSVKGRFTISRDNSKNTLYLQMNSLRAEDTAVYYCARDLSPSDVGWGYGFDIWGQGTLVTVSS VL: EIVLTQSPGTLSLSPGERATLSCRASQSVSNTYLAWYQQKPGQAPRLLIYDTSSRATGIPDRFSGSGSGTDFTLTISRLEPEDFAVYYCQQYGSSLTFGQGTKVEIK has what koff?
## Result 0.0144

## Task Now this one: P5A3 (IgG format) (antibody, V domains shown, IgG format, captured by anti-human Fc) VH: QVQLVQSGAEVKKPGSSVKVSCKASGGTFSSYYIGWVRQAPGQGLEWMGGIIPWFGTANYAQKFQGRVTITADKSTNTAYMELSSLRSEDTAVYYCAADHHDSPSGYTSGGFDVWGQGTLVTVSS VL: QSALTQPASVSGSPGQSITISCTGTSSDVGGYNYVSWYQQHPGKAPKLMIYEVSKRPSGVPDRFSGSKSGNTASLTVSGLQAEDEADYYCSSYAGSNTVVFGGGTKLTVL
## Result 0.01

## Task Now this one: P12B6 (IgG format) (antibody, V domains shown, IgG format, captured by anti-human Fc) VH: QVQLVQSGAEVKKPGSSVKVSCKASGGTFMSYAISWVRQAPGQGLEWMGGIIPIFGIANYAQKFQGRVTITADKSTSTAYMELSSLRSEDTAVYYCARETLIYPIPFELWGQGTLVTVSS VL: EIVLTQSPGTLSLSPGERATLSCRASQIVSSSYLAWYQQKPGQAPRLLIYGASSRASGIPDRFSGSGSGTDFTLTISRLEPEDFAVYYCQQYGGSPYTFGQGTKVEIK
## Result 0.009

## Task Now this one: P15F7 (IgG format) (antibody, V domains shown, IgG format, captured by anti-human Fc) VH: EVQLLESGGGLVQPGGSLRLSCAASGFTFNNYAMNWVRQAPGKGLEWVSVISGSGGTTYYADSVKGRFTISRDNSKNTLYLQMNSLRAEDTAVYYCASGIWDLRYWGQGTLVTVSS VL: DIQMTQSPSSLSASVGDRVTITCRASQSISTYLNWYQQKPGKAPKLLIYAASNLQSGVPSRFSGSGSGTDFTLTISSLQPEDFATYYCQQSYSIPLTFGQGTKVEIK
## Result 0.0055

## Task Now this one: P3E10 (IgG format) (antibody, V domains shown, IgG format, captured by anti-human Fc) VH: QVQLVQSGAEVKKPGSSVKVSCKASGGTFSSYAIQWVRQAPGQGLEWMGGIVGSWGLANYAQKFQGRVTITTDKSTSTAYMELSSLRSEDTAVYYCATSAFGELASWGQGTLVTVSS VL: EIVLTQSPGTLSLSPGERATLSCRASQSVPSSQLAWYQQKPGQAPRLLIYDASSRATGIPDRFSGSGSGTDFTLTISRLEPEDFAVYYCQQYGSSPLTFGQGTKVEIK
## Result 0.019

## Task Now this one: P1A5 (IgG format) (antibody, V domains shown, IgG format, captured by anti-human Fc; the entry printed as P1A5 is used) VH: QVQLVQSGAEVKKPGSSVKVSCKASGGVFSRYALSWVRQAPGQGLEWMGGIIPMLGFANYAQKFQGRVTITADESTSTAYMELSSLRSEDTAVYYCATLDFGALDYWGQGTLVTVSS VL: EIVLTQSPGTLSLSPGERATLSCRASQAVDSSDLAWYQQKPGQAPRLLIYDAYTRPSGIPDRFSGSGSGTDFTLTISRLEPEDFAVYYCQQYGSSPLTFGGGTKLEIK
## Result 0.000347
